Target: mGluR5 (Homo sapiens, UniProt P41594)
Construct: expressed in transfected cells
Sequence (P41594 21-1180 isoform P41594-2 limits assumed): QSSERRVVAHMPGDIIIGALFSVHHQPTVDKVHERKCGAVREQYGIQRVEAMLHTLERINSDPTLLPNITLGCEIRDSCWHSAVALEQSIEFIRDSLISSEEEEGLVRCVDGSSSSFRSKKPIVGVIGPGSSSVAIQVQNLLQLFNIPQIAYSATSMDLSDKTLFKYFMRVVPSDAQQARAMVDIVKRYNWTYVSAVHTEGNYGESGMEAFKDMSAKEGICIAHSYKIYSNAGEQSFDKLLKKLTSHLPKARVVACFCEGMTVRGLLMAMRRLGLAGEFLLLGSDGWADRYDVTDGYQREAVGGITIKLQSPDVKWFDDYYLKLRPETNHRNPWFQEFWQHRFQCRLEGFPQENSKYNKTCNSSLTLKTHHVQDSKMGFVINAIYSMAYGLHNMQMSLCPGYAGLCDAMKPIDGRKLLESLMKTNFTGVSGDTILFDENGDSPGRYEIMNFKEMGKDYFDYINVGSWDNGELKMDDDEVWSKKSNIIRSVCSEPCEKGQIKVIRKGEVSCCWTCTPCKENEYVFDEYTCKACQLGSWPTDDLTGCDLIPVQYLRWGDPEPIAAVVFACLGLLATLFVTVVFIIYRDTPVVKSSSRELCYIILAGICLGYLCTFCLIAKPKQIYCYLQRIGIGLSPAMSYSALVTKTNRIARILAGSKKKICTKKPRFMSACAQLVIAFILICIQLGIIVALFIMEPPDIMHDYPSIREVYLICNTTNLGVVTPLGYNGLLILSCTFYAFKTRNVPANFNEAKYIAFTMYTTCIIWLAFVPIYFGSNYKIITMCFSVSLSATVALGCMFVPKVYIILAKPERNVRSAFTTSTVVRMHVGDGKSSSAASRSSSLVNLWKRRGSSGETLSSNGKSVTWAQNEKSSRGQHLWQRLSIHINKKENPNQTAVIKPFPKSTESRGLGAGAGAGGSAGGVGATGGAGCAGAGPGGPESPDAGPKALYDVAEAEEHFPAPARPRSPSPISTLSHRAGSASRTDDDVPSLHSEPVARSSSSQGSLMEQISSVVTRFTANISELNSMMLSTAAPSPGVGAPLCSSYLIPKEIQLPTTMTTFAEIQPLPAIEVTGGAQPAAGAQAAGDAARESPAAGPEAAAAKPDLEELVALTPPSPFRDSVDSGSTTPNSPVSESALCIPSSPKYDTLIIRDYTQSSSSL
Assay: inhibition of the glutamate induced elevation of intracellular Ca2+-concentration
Type: cell-based
Conditions: inhibition of glutamate induced elevation of intracellular Ca2+ at a concentration of 10 μM; read-out: mGluR5 Activity inh. at 10 μM [%]
attribute.measured: inhibition at 10 µM (%)

chemical.structure | inhibition at 10 µM, %
Clc1ccc(Nc2ncc(-c3nnc4n3CCCCCC4)cc2Cl)cc1 | 98
CCCn1ccnc1-c1ccc(Nc2ccc(Cl)cc2)nc1 | 96
CC(C)Cn1ccnc1-c1ccc(Nc2ccc(Cl)cc2)nc1 | 95

P: Cn1cc(C(C)(C)C)nc1-c1cnc(Nc2ccc(Cl)cc2)c(Cl)c1
Q: Clc1ccc(Nc2ncc(-c3nnn[nH]3)cc2Cl)cc1
Q: Min inhibition at 10 µM? P | Q Give the label of your selection.
Result: Q
(Q: 56%, P: 86%)

###

Target: mGluR5 (Homo sapiens, UniProt P41594)
Construct: expressed in transfected cells
Assay: inhibition of the glutamate induced elevation of intracellular Ca2+-concentration
Format: cell-based
Conditions: inhibition of glutamate induced elevation of intracellular Ca2+ at a concentration of 10 μM; read-out: mGluR5 Activity inh. at 10 μM [%]
attribute.measured: inhibition at 10 µM (%)

A: Clc1ccc(Nc2ncc(-c3ncc4n3CCCC4)cc2Cl)cc1 [Compound 17]
B: Cc1cn(-c2cnc(Nc3ccc(Cl)cc3)c(Cl)c2)cn1 [Compound 49]
Q: Please let me know which one, A or B , has a lower measured inhibition at 10 µM value. Mark your answer with the label of the selected entry.
Result: B

###

Target: mGluR5 (Homo sapiens, UniProt P41594)
Construct: expressed in transfected cells
Assay: inhibition of the glutamate induced elevation of intracellular Ca2+-concentration
Type: cell-based
Conditions: inhibition of glutamate induced elevation of intracellular Ca2+ at a concentration of 10 μM; read-out: mGluR5 Activity inh. at 10 μM [%]
Excerpt: This can be determined in vitro for example at recombinant human metabotropic glutamate receptors, especially PLC-coupled subtypes thereof such as mGluR5, using different procedures like, for example, measurement of the inhibition of the agonist induced elevation of intracellular Ca^2+ concentration in accordance with L. P. Daggett et al., Neuropharm. Vol. 34, pages 871-886 (1995), P. J. Flor et al., J. Neurochem. […]
attribute.measured: inhibition at 10 µM (%)

compound | inhibition at 10 µM [%]
CCn1cc(C(C)(C)C)nc1-c1cnc(Nc2ccc(Cl)cc2)c(Cl)c1 [Compound 39] | 97
CCn1cccc1-c1cnc(Nc2ccc(Cl)cc2)c(Cl)c1 [Compound 28] | 31
CCn1cc(C)nc1-c1cnc(Nc2ccc(Cl)cc2)c(Cl)c1 [Compound 32] | 95
CCc1cn(CC)c(-c2cnc(Nc3ccc(Cl)cc3)c(Cl)c2)n1 [Compound 36] | 78
CCCCn1cc(CC)nc1-c1cnc(Nc2ccc(Cl)cc2)c(Cl)c1 [Compound 35] | 100
CCCCn1cc(C(C)(C)C)nc1-c1cnc(Nc2ccc(Cl)cc2)c(Cl)c1 [Compound 41] | 79

P: Cc1cc(-c2cnc(Nc3ccc(Cl)cc3)c(Cl)c2)n(C)n1 [Compound 29]
Q: CCCn1cc(C(C)(C)C)nc1-c1cnc(Nc2ccc(Cl)cc2)c(Cl)c1 [Compound 40]
Q: # compare inhibition at 10 µM for P vs Q ; return the one with the smaller value Choose, then provide that item's label.
Result: P

###

Biological target: mGluR5 (Homo sapiens, UniProt P41594)
Construct: expressed in transfected cells
Assay: inhibition of the glutamate induced elevation of intracellular Ca2+-concentration
Type: cell-based
Conditions: inhibition of glutamate induced elevation of intracellular Ca2+ at a concentration of 10 μM; read-out: mGluR5 Activity inh. at 10 μM [%]
attribute.measured: inhibition at 10 µM (%)

These solved cases illustrate the format of a correct answer.
chemical.structure | number
CC(C)Cn1nnnc1-c1cnc(Nc2ccc(Cl)cc2)c(Cl)c1 | 53
Clc1ccc(Nc2ncc(-c3nnc4n3CCCCCCC4)cc2Cl)cc1 | 100
Clc1ccc(Nc2ccc(-c3nccn3CC3CC3)cn2)cc1 | 96
CC(C)n1cncc1-c1ccc(Nc2ccc(Cl)cc2)nc1 | 73
Cc1cnc(-c2cnc(Nc3ccc(Cl)cc3)c(Cl)c2)n1C | 48
CC(C)n1cnnc1-c1ccc(Nc2ccc(Cl)cc2)nc1 | 40

I: Clc1ccc(Nc2ncc(-c3nnc4n3CCCC4)cc2Cl)cc1
II: CCCn1nnnc1-c1cnc(Nc2ccc(Cl)cc2)c(Cl)c1
Q: Dear colleague, could you let me know whether I or II has the lower recorded inhibition at 10 µM? Thanks. Reply with the label of the item you choose.
Result: II
(II: 49%, I: 89%)

###

Biological target: mGluR5 (Homo sapiens, UniProt P41594)
Construct: expressed in transfected cells
Experiment: inhibition of the glutamate induced elevation of intracellular Ca2+-concentration
Format: cell-based
Conditions: inhibition of glutamate induced elevation of intracellular Ca2+ at a concentration of 10 μM; read-out: mGluR5 Activity inh. at 10 μM [%]
attribute.measured: inhibition at 10 µM (%)

Look over these answered cases.
compound | quantity.unit | inhibition at 10 µM
Clc1ccc(Nc2ncc(-c3nnc4n3CCCCC4)cc2Cl)cc1 [Compound 25] | % | 93
CCCc1cnnn1-c1cnc(Nc2ccc(Cl)cc2)c(Cl)c1 [Compound 45] | % | 89
CCn1ccnc1-c1cnc(Nc2ccc(C)nc2)c(Cl)c1 [Compound 18] | % | 95
CCn1c(-c2cnc(Nc3ccc(Cl)cc3)c(Cl)c2)nc(C)c1C [Compound 20] | % | 92
CC(C)n1ccnc1-c1ccc(Nc2ccc(Cl)cc2)nc1 [Compound 4] | % | 93
CC(C)(C)c1cnc(-c2cnc(Nc3ccc(Cl)cc3)c(Cl)c2)[nH]1 [Compound 37] | % | 95
CCCn1cc(CC)nc1-c1cnc(Nc2ccc(Cl)cc2)c(Cl)c1 [Compound 34] | % | 100
CCCn1c(-c2cnc(Nc3ccc(Cl)cc3)c(Cl)c2)nc(C)c1C [Compound 42] | % | 94

a: Cc1cn(C)c(-c2cnc(Nc3ccc(Cl)cc3)c(Cl)c2)n1 [Compound 30]
b: Clc1ccc(Nc2ncc(-c3ncc4ccccn34)cc2Cl)cc1 [Compound 16]
Q: Param metric = inhibition at 10 µM; output whichever of a , b has the minimum value. # reply format: chosen label
Result: b
(b: 32%, a: 98%)

###

Target: mGluR5 (Homo sapiens)
Construct: expressed in transfected cells
Assay: inhibition of the glutamate induced elevation of intracellular Ca2+-concentration
Type: cell-based
Conditions: inhibition of glutamate induced elevation of intracellular Ca2+ at a concentration of 10 μM; read-out: mGluR5 Activity inh. at 10 μM [%]
attribute.measured: inhibition at 10 µM (%)

molecule | measurement.target | inhibition at 10 µM / %
CCCn1cc(C)nc1-c1cnc(Nc2ccc(Cl)cc2)c(Cl)c1 [Compound 33] | mGluR5 (Homo sapiens) | 100

P: CC(C)n1cnc(-c2ccc(Nc3ccc(Cl)cc3)nc2)c1 [Compound 11]
Q: Clc1ccc(Nc2ccc(-c3nnc4n3CCCC4)cn2)cc1 [Compound 13]
R: CCc1c(C)n(CC)c(-c2cnc(Nc3ccc(Cl)cc3)c(Cl)c2)[n+]1CC [Compound 43]
Q: List these items ordered by inhibition at 10 µM, big to small. Write the labels out in the order the request specifies.
Result: Q, P, R

a: Clc1ccc(Nc2ccc(-c3nccn3-c3ccccc3)cn2)cc1 [Compound 9]
b: Clc1ccc(Nc2ccc(-c3nnc4ccccn34)cn2)cc1 [Compound 14]
c: CCCCc1cnnn1-c1cnc(Nc2ccc(Cl)cc2)c(Cl)c1 [Compound 44]
Q: Let's sort these by inhibition at 10 µM, smallest first. Go ahead? Reply with the labels, ordered as the question asks.
Result: b, a, c
(b: 28%, a: 63%, c: 98%)
